// read-out IC50, gathered for Receptor tyrosine-protein kinase erbB-2 (Homo sapiens) from published studies

Entry O=C1Nc2ccc(Cl)cc2/C1=C/c1ccc[nH]1 , Receptor tyrosine-protein kinase erbB-2 (Homo sapiens) data, IC50 value: > 100 µM

Entry Cc1c(C(=O)N2CCOc3ccc(-c4ccc(N)nc4)cc3C2)ccc(S(C)(=O)=O)c1F , Receptor tyrosine-protein kinase erbB-2 (Homo sapiens) data, IC50 value: > 3.5 µM

Entry COc1ccc(C)c(Nc2c(C#N)cnc3cc4c(cc23)ncn4CCN2CCOCC2)c1 , Receptor tyrosine-protein kinase erbB-2 (Homo sapiens) data, IC50 value: > 1 µM

Entry CC(C)Nc1ncnn2ccc(CN3CCC(N)CC3)c12 , Receptor tyrosine-protein kinase erbB-2 (Homo sapiens) data, IC50 value: > 1 µM

Entry O=C(NC1CC1)c1cc(NCc2cnc(Nc3ccccn3)s2)c(F)cc1F , Receptor tyrosine-protein kinase erbB-2 (Homo sapiens) data, IC50 value: > 50 µM

Entry CCCCN(Cc1cc(C)cc(C)c1O)C(=O)Nc1ccccc1 , Receptor tyrosine-protein kinase erbB-2 (Homo sapiens) data, IC50 value: > 50 µM

Entry COc1cc2c(Nc3ccc(-c4nc5cc(Cl)ccc5s4)cc3)ncnc2cc1OCCCN1CCN(C)CC1 , Receptor tyrosine-protein kinase erbB-2 (Homo sapiens) data, IC50 value: > 10 µM

###

pIC50: −log10 of the molar value.
// read-out pIC50, gathered for Receptor tyrosine-protein kinase erbB-2 (Homo sapiens, UniProt P04626) from published studies

Entry COc1ccc(C2=NN(C(=O)c3ccc(Cl)cc3O)C(c3ccc(Cl)cc3)C2)cc1 (stereo not drawn) , Receptor tyrosine-protein kinase erbB-2 (Homo sapiens, UniProt P04626) data, pIC50 value: < 4.60

Entry c1ccc(-c2n[nH]c3c2oc2ccccc23)cc1 , Receptor tyrosine-protein kinase erbB-2 (Homo sapiens, UniProt P04626) data, pIC50 value: ≤ 5.00

Entry C[C@H](NC(=O)c1cc(-c2cnn(C3CCOCC3)c2)cnc1N)c1c(Cl)ccc(F)c1Cl , Receptor tyrosine-protein kinase erbB-2 (Homo sapiens, UniProt P04626) data, pIC50 value: < 5.00

Entry COc1cc2ncnc(Nc3cccc(Cl)c3)c2cc1B(O)O , Receptor tyrosine-protein kinase erbB-2 (Homo sapiens, UniProt P04626) data, pIC50 value: < 6.00

Entry COC1=CC(=O)C=C(/C=C2\CCCC3CCCCC23)C1=O (stereo not drawn) , Receptor tyrosine-protein kinase erbB-2 (Homo sapiens, UniProt P04626) data, pIC50 value: < 4.00

Entry COC(=O)c1ccc2c(c1)NC(=O)/C2=C(\Nc1ccc(CN(C)C(=O)N(C)C)cc1)c1ccccc1 , Receptor tyrosine-protein kinase erbB-2 (Homo sapiens, UniProt P04626) data, pIC50 value: < 5.00

Entry COc1cc(-c2nc3ccccc3s2)ccc1Nc1ncnc2cc(OCCCN3CCN(C)CC3)c(OC)cc12 , Receptor tyrosine-protein kinase erbB-2 (Homo sapiens, UniProt P04626) data, pIC50 value: < 5.00

Entry Cc1cc(C)c(/C=C2\C(=O)Nc3cccc(C)c32)[nH]1 , Receptor tyrosine-protein kinase erbB-2 (Homo sapiens, UniProt P04626) data, pIC50 value: < 4.00

###

pIC50: −log10 of the molar value.
// read-out pIC50, gathered for UniProt P04626 from published studies

Entry CCc1ccc(-c2ccc3c(c2)-c2c(cnn2C)S(=O)(=O)N3C)cc1 , UniProt P04626 data, pIC50 value: < 5.00

Entry COC(=O)C1CCN(Cc2ccn3ncnc(Nc4ccc5c(cnn5Cc5cccc(F)c5)c4)c23)CC1 , UniProt P04626 data, pIC50 value: < 6.00

Entry COc1ccc2nc(-c3n[nH]cc3/C=C/c3cncc(C#N)c3)[nH]c2c1 , UniProt P04626 data, pIC50 value: < 4.00
